Values from the RNAGym collection of RNA variant scans (doi:10.7554/elife.90254)

B1: OR4K15 (parent)
chain: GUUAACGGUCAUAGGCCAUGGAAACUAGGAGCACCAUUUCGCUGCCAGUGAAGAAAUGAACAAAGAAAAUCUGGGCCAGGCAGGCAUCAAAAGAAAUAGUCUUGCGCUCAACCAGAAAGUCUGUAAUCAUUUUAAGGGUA

variants of: B1; test: self-cleavage, relative activity (ratio to wild type); higher = more cleavage; in vitro, sequencing; the parent is a self-cleaving ribozyme
Please note: 1.0 applies when self-cleavage is 0.7 or greater, and 0.0 applies otherwise.

Reference set, count: 5
1. GUUAACGGUCAUAGGCCAUGGAAACUAGGAGCACCAUUUCCCUGCCAGUGAAGAAAUGAACAAAGAAAAUCUGGGCCAGGCAGGCAUCAAAAGAGAUAGUCUUGCGCUCAACCAGAAAGUCUGUAAUCAUUUUAAGGGUA; 1.0
2. GUUAACGGACAUAGGCCAUGGAUACUAGGAGCACCAUUUCGCUGCCAGUGAAGAAAUGAACAAAGAAAAUCUGGGCCAGGCAGGCAUCAAAAGAAAUAGUCUUGCGCUCAACCAGAAAGUCUGUAAUCAUUUUAAGGGUA; 1.0
3. GUUAACGGUCAUAGGCCAUGGAAACUAGGAGCACCAUUUCGCUGCCAGUGAAGAAAUGAACAAAGAAAUUCUGGGCCAGGCAGGCAGCAAAAGAAAUAGUCUUGCGCUCAACCAGAAAGUCUGUAAUCAUUUUAAGGGUA; 1.0
4. GUUAACGGUCAUAGGCCAUGGAAACUGGGAGCACCAUUCCGCUGCCAGUGAAGAAAUGAACAAAGAAAAUCUGGGCCAGGCAGGCAUCAAAAGAAAUAGUCUUGCGCUCAACCAGAAAGUCUGUAAUCAUUUUAAGGGUA; 1.0
5. GUUAACGGUCAUAGGCCAUGGAAACUAGGAGCACCAUUUCGCUGCCAGUGAAGAAAUGAACAAAGAAAACCUGGGCCAGGCAGGCAUCAAUAGAAAUAGUCUUGCGCUCAACCAGAAAGUCUGUAAUCAUUUUAAGGGUA; 1.0

Answer whether self-cleavage of "GUUAACGGUCAUAGGCCAUGGAAACUAGGAGCACCAUUUCGCUGCCAGUGAAGAAAUGAACAAAGAAAAUCUGGGCCAGGCAGGCAUCAAAUGAAAUAGUCUUGCGCUCAAUCAGAAAGUCUGUAAUCAUUUUAAGGGUA" is greater than or equal to 0.7.
0.0

Another variant to check: "GUUAACAGUCAUAGGCCAUGGAAACUAGGAGCACCAUUUCGCUGCCAGUGAAGAAAUGAACAAAGAAAAUCUGGGCCAGGCAGGCAUCGAAAGAAAUAGUCUUGCGCUCAACCAGAAAGUCUGUAAUCAUUUUAAGGGUA"
0.0

What about this variant? "GUCAACGGUCAUAGGCCAUGGAAACUAGGAGCACCAUUUCGCUGCCAGUGAAGAAAUGAACAAAGAAAAUCUGGGCCAGGCAGGCAUCAAAAGAAAUAGUCUUGCGCUCAACCAGAAAGUCUGUAAUCAUUUUAGGGGUA"
1.0
